- TEST SYSTEM: T1, EGFRvIII amino acid residues 15 to 37 with Lys37 to Ala mutation (human)
- T1 construct: mutation is already in the entry
- T1 peptide: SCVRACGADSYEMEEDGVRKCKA
- METHOD NOTES: yeast display flow cytometry, Myc-normalized;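 note: Anti-EGFRvIII monoclonal antibodies tested by flow cytometry on yeast displaying alanine-substituted fragments, two-color indirect fluorescence with anti-Myc signal tracking fusion protein expression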
MEASURED ATTRIBUTE: % of binding vs wild-type fragment 15-37 (%)
Give just the number in %; leave the unit off.

Observe how each entry below is paired with its result.
| BINDER | MEASURED ATTRIBUTE | UNITS LABEL | NUMERIC VALUE |
| --- | --- | --- | --- |
| F265-9C9 (antibody, V domains shown, Mouse hybridoma mAb) VH: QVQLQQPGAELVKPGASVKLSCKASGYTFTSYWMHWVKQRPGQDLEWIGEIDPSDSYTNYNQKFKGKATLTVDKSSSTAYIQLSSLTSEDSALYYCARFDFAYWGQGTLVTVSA VL: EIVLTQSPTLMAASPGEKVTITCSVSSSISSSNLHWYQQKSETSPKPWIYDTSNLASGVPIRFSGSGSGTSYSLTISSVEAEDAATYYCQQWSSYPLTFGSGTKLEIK | % of binding vs wild-type fragment 15-37 | % | 108 |
| F263-4E11 (antibody, V domains shown, Mouse hybridoma mAb) VH: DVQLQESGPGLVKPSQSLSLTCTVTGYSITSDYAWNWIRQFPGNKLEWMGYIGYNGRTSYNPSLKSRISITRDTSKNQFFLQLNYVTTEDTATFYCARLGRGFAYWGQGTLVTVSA VL: DILMTQSPSSMSVSLGDTVSITCHASQGINSNIGWLLQKPGKSFKGLIYHGTNLEDGVPSRFSGSGSGTDYSLTISSLESEDFADYYCVQYAQFPYTFGGGTKLEIK | % of binding vs wild-type fragment 15-37 | % | 191 |

Let us move to another entry and its % of binding vs wild-type fragment 15-37.
Can you share its % of binding vs wild-type fragment 15-37? I mean this binder: F263-5D8 (antibody, V domains shown, Mouse hybridoma mAb) VH: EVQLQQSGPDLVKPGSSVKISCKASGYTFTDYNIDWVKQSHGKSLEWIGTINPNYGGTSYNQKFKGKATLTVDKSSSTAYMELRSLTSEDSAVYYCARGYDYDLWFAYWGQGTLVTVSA VL: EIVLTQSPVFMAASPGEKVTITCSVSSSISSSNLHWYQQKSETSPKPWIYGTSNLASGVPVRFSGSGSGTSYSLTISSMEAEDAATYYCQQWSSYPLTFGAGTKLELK
194
